Target: human chemokine receptor 2 isoform B (Homo sapiens)
Sequence (P41597 1-360 isoform P41597-2): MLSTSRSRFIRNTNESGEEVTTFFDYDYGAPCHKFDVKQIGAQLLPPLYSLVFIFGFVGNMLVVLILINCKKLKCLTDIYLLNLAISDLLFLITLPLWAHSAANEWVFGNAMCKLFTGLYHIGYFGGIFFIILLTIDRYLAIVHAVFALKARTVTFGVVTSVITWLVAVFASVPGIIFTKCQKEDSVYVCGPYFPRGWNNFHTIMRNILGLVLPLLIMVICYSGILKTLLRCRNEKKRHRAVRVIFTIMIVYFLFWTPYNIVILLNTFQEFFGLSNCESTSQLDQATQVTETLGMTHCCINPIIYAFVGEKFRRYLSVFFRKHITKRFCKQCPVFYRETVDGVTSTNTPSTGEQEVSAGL
Assay: Calcium mobilization assay (FLIPR, CHOK1-CCR2B-A5 cells, 20 nM MCP-1)
Conditions: Ca mobilisation assay, CCR2, antagonist activity vs 20 nM MCP-1
MEASURED_METRIC: IC50 (nM)
Answers are plain numbers, in nM.

Some solved cases for reference:
* CC1CCC(O)CN1CCCCN1CCN(C(=O)/C=C/c2ccc(Cl)c(Cl)c2)CCC1=O (racemic) [Example 475] | 20
* O=C(/C=C/c1ccc(F)c(Cl)c1)N1CCC(=O)N(CCCCN2CCCCC2CO)CC1 (racemic) | 584

Required: IC50, one value per compound below.
1. O=C(/C=C/c1ccc(Cl)c(Cl)c1)N1CCC(=O)N(CCCN2CCC3(CC3)C(O)C2)CC1 (stereo not shown) [Example 261]
2. CC(C)N1CCN(CC(O)CN2CCN(C(=O)/C=C/c3ccc(Cl)c(Cl)c3)CCC2=O)CC1C (racemic)

1. 9
2. 977
